System: Vesicular stomatitis virus
method: Antiviral activity against Vesicular stomatitis virus infected in human HEL cells assessed as inhibition of virus-induced cytopathicity after 3 days
Type: functional, organism-based
condition-parameters: 72 h
quantity: EC50

Input line: Dear colleague, I am looking for the recorded EC50 of the following compound: O=c1[nH]c(=O)n([C@H]2C[C@H](O)[C@@H](CO)O2)cc1/C=C/Br [BRIVUDINE]
Output line: > 250 µg/mL

----------
method: Cytotoxicity against human HeLa cells assessed as minimum cytotoxic concentration required to cause microscopically detectable alteration in normal cell morphology
Type: cell-based
quantity: MCC

// known answers, use as guide
NC(=S)N1N=C(c2ccccc2)CC1c1ccc(OCc2ccccc2)cc1 (centres undefined) ... ≥ 20 µg/mL
Cc1ccc(C2=NN(c3nc(-c4ccc(C)cc4)cs3)C(c3ccc(OCc4ccccc4)cc3)C2)cc1 (centres undefined) ... > 100 µg/mL
O=C1CSC(N2N=C(c3ccc(Br)cc3)CC2c2ccc(OCc3ccccc3)cc2)=N1 (centres undefined) ... > 100 µg/mL
NC(=O)c1ncn([C@@H]2O[C@H](CO)[C@@H](O)[C@H]2O)n1 [RIBAVIRIN] ... > 250 µg/mL

Input line: I have this molecule here, Cc1ccc(-c2csc(N3N=C(c4ccccc4)CC3c3ccc(OCc4ccccc4)cc3)n2)cc1 (centres undefined) , and I need its recorded MCC.
Output line: > 100 µg/mL

Input line: For CC(=O)N1N=C(c2ccc(Cl)cc2)CC1c1ccc(OCc2ccccc2)cc1 (centres undefined) then?
Output line: ≥ 20 µg/mL

Input line: Input Cc1ccc(-c2csc(N3N=C(c4ccc(Br)cc4)CC3c3ccc(OCc4ccccc4)cc3)n2)cc1 (centres undefined)
Output line: > 100 µg/mL

Input line: Now the same for Clc1ccc(-c2csc(N3N=C(c4ccc(Br)cc4)CC3c3ccc(OCc4ccccc4)cc3)n2)cc1 (centres undefined)
Output line: > 100 µg/mL

Input line: Here is the next molecule: CC(=O)N1N=C(c2ccccc2)CC1c1ccc(OCc2ccccc2)cc1 (centres undefined)
Output line: > 100 µg/mL
